Biological target: T1, Human PD-1 expressed on CHO-K1 cells (CHO-K1/hPD-1) (human, UniProt Q15116 25-288)
T1 construct: whole, on cells; also called CHO-K1 cells overexpressing human PD-1
T1 sequence (Q15116 25-288): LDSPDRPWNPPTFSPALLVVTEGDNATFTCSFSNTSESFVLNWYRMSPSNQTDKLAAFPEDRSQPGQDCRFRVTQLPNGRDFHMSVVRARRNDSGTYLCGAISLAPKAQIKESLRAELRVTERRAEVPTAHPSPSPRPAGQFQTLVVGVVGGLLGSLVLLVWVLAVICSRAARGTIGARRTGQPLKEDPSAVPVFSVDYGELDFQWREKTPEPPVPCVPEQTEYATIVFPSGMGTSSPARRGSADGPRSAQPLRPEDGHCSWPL
Test: FACS, CHO-K1/hPD-1 cells

{"binder": "PR005582 (antibody, human IgG1, V domains shown, no light chain; also called anti-PD1 PR002481Com_28 HCAb hIgG1) VH: EVQLVETGGGLIQPGGSLRLSCAASGFNVASFYMSWVRQAPGKGREWVSIIDKAGSTYYGASVKGRFTISRDNSKNRLYLQMNSLRAEDTAMYYCARATEVREKQGYNYPFNYWGQGTLVTVSS", "Maximum (MFI)": "3.3e+06"}
{"binder": "PR005571 (antibody, human IgG1, V domains shown, no light chain; also called anti-PD1 PR002481Com_31 HCAb hIgG1) VH: EVQLVETGGGLIQPGGSLRLSCAASGFNVSFYYMSWVRQAPGKGREWVSIIDKGGSTYYADSVKGRFTISRDNSKNRLYLQMNSLRAEDTAMYYCARATEVREKQGYNYPFNYWGQGTLVTVSS", "Maximum (MFI)": "2.95e+06"}
{"binder": "PR005581 (antibody, human IgG1, V domains shown, no light chain; also called anti-PD1 PR002481R2M1_A1 HCAb hIgG1) VH: EVQLVETGGGLIQPGGSLRLSCAASGFNVSSFYMSWVRQAPGKGREWVSIIDKAGSTYYGASVKGRFTISRDNSKNRLYLQMNSLRAEDTAMYYCARATEVREKQGYNYPFNYWGQGTLVTVSS", "Maximum (MFI)": "3.16e+06"}
{"binder": "PR005584 (antibody, human IgG1, V domains shown, no light chain; also called anti-PD1 PR002481Com_30 HCAb hIgG1) VH: EVQLVETGGGLIQPGGSLRLSCAASGFNVSSFYMSWVRQAPGKGREWVSIIDKAGSTYYADSVKGRFTISRDNSKNRLYLQMNSLRAEDTAMYYCARATEVREKQGYNYPFNYWGQGTLVTVSS", "Maximum (MFI)": "3.02e+06"}
